Hi there, I'd appreciate the recorded Binding affinity (RU) for every entry that follows.
molecular target: acetylcholine receptor; assay: SPR, receptor immobilised on chip, peptide at 10 uM
Please respond with the number in RU and leave the unit unwritten.

Input line: Give Binding affinity (RU) for the following binder: RDTHRR [6mer-2-957]
Output line: 40

Input line: Give Binding affinity (RU) for the following binder: KNCWKR [6mer-2-915]
Output line: 29

Input line: Give Binding affinity (RU) for the following binder: KFWEKK [6mer-2-995]
Output line: 38

Input line: Give Binding affinity (RU) for the following binder: KATHKR [6mer-2-969]
Output line: 33

Input line: Give Binding affinity (RU) for the following binder: RHWEKK [6mer-2-968]
Output line: 39

Input line: Give Binding affinity (RU) for the following binder: KYCDKK [6mer-2-906]
Output line: 40

Input line: Give Binding affinity (RU) for the following binder: KNTKKR [6mer-2-961]
Output line: 21

Input line: Give Binding affinity (RU) for the following binder: RTMNRR [6mer-2-907]
Output line: 25

Input line: Give Binding affinity (RU) for the following binder: REMKRK [6mer-2-977]
Output line: 30

Input line: Give Binding affinity (RU) for the following binder: RTWIKR [6mer-2-930]
Output line: 37
